# Run Description: G06 Cancer Cell Toxicity qHTS against the NCATS CANVASS Library (AID 1347368); note: nearly all actives have a fitted effect of over 60% in size; note: potency is the fitted concentration of half-maximal effect
# Measurement Conditions: G06 dog glioma cells, viability ATP luminescence, 72 h; series mostly up to 46.1 µM
Results filed as inconclusive are left out. The source made the active and inactive calls. Calls come from the whole dose curve; as a rule, active = well fitted cell-killing curve with a large enough effect; inconclusive = small, poorly fitted or top-dose-only effect; inactive = flat fitted curve, though single readings scatter.
Observed Property: Potency

>>> assay_result("O=C1CC(c2ccc(O)cc2)Oc2cc(O)cc(O)c21 (centres undefined)")
"inactive"
>>> assay_result("CN1C(=O)C(=O)N2C(=C[C@]3(c4c[nH]c5ccccc45)c4ccccc4N[C@H]23)C1=O")
"inactive"
>>> assay_result("C[C@@]12CCC[C@@](C)(C(=O)O)[C@H]1C[C@@H](O)[C@@]13C[C@@H](CC[C@@H]21)[C@](C)(O)C3")
"inactive"
>>> assay_result("C=CC(CCCCC)C1C(=O)NC(=O)C1C(=O)C1C2C(C)CC(C(=O)O)CC2CC1(O)C(=O)/C=C/C (centres undefined)")
"inactive"
>>> assay_result("COc1c(O)cc(O)c2c(=O)cc(-c3ccccc3)oc12")
"inactive"
>>> assay_result("C[C@H](CCC(O)C(C)(O)CO)[C@@]1(O)CC[C@@]2(C)C3=C(CC[C@@]21C)[C@@]1(C)CCC(OC(=O)CCC(=O)O)C(C)(C)[C@@H]1CC3 (some centres undefined)")
"inactive"
>>> assay_result("COc1cc(O)c(C(=O)[C@@H]2[C@H](CC=C(C)C)C(C)=CC[C@H]2c2ccccc2)c(O)c1")
"inactive"
>>> assay_result("C=CC(C)(C)C(=O)[C@@H](C)[C@@H]1CC[C@@](C)(C=C)O1")
"inactive"
>>> assay_result("CC(C)[C@@H]1CC(=O)c2coc3c2[C@H]1C[C@@H](C)C3=O")
"inactive"
>>> assay_result("C=C(Cl)[C@](Cl)(CBr)CC[C@@H](Br)C(C)(C)Cl")
"inactive"
>>> assay_result("O[C@H]1C=C2[C@H]3CN(Cc4cc5c(cc43)OCO5)[C@H]2C[C@@H]1O")
"6.62 µM (active)"
>>> assay_result("C[C@@]12CCC[C@@](C)(C(=O)OP(=O)(O)OC[C@H]3O[C@@H](n4cnc5c(N)ncnc54)[C@H](O)[C@@H]3O)[C@H]1C[C@@H](O)[C@@]13C[C@@H](CC[C@@H]21)[C@](C)(O)C3")
"14.8 µM (active)"
>>> assay_result("C/C=C(/CO)C(=O)O[C@@H]1[C@H](O)[C@@H](C(=O)OC)O[C@@H]2C[C@H]3OC(n4cnc5c(N)ncnc54)[C@H](OC)[C@H]3O[C@@]12O (some centres undefined)")
"inactive"
>>> assay_result("COc1ccc2[nH]c3c(c2c1)CCN1C[C@H]2C[C@@H](OC(=O)c4cc(OC)c(OC)c(OC)c4)[C@H](OC)[C@@H](OC)[C@H]2C[C@H]31")
"1.48 µM (active)"

###

# Measured On: Nuclear receptor subfamily 1 group I member 3 (Homo sapiens) (UniProt Q14994)
# Sequence (Q14994 whole entry, looked up): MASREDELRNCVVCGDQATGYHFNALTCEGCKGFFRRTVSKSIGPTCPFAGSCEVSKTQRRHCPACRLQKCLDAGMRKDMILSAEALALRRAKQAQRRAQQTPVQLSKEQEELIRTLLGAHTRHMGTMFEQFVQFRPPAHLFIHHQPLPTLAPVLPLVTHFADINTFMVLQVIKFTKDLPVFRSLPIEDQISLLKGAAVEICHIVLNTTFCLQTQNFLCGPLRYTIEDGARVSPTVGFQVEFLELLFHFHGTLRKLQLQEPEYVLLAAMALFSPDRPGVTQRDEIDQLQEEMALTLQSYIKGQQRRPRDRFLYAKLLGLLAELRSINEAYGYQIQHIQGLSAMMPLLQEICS
# Run Description: qHTS for Constitutive Androstane Receptor (CAR) Agonist screened against the NCATS CANVASS Library (AID 1347373);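 note: every well also contained 1.5 µM PK11195 alongside the test compound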
# Measurement Conditions: HepG2-hCAR-CYP2B6 luciferase reporter, ONE-Glo luminescence; series mostly up to 46.1 µM
Results filed as inconclusive are left out. Activity calls are given as the source filed them. Calls follow the shape of the dose curve; as a rule, active = well fitted activation curve with a large enough effect; inconclusive = small, poorly fitted or top-dose-only effect; inactive = no such curve, though single readings can be large or run the other way.
Outcome codes: Yes (active), No (inactive)

>>> class_label("Cc1cc(C)c(O)c(C(=O)CC2CC(=O)NC(=O)C2)c1")
"No"
>>> class_label("C[C@H](CCC(O)C(C)(O)CO)[C@@]1(O)CC[C@@]2(C)C3=C(CC[C@@]21C)[C@@]1(C)CCC(OC(=O)CCC(=O)O)C(C)(C)[C@@H]1CC3 (stereo partly specified)")
"No"
>>> class_label("C/C=C(/C)c1cc(O)c(C)c2c1Oc1cc(O)cc(C)c1C(=O)O2")
"No"
>>> class_label("COC(=O)C1=C[C@]23C[C@@H](C)CC[C@@H]2[C@@]2(C)CC[C@@H](C(C)C)[C@@](O)(O3)[C@@H]12")
"No"
>>> class_label("O=C1CC2OCC=C3CN4C5CC3C2[C@@H]2N1c1ccccc1[C@]52C[C@@H]4C1=C[C@H]2C3CC4N(CC[C@@]45c4ccccc4N(C1=O)[C@@H]25)C/C3=C/CO (stereo partly specified)")
"Yes"
>>> class_label("C=C1C[C@]23C=CC(=O)[C@@](C)(CCCC(C)C(=O)N[C@@H](CO)C(=O)O)[C@@H]2C[C@@H]1CC3 (stereo partly specified)")
"No"

###

# Measured On: Cytochrome P450 1A2 (Homo sapiens) (UniProt P05177)
# Sequence (P05177 whole entry, looked up): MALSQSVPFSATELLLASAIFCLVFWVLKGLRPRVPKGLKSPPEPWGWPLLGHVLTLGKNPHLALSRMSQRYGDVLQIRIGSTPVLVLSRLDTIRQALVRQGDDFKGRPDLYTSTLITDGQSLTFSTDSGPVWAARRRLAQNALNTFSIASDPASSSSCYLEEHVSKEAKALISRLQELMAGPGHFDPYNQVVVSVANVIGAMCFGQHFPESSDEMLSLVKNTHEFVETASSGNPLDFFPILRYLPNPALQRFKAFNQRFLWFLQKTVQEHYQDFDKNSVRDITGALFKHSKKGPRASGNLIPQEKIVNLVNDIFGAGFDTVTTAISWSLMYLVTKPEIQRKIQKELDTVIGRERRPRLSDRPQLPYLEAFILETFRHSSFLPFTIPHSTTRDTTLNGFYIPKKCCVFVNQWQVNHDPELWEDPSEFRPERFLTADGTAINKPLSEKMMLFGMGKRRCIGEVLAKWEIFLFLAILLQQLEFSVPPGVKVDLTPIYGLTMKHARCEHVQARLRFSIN
# Run Description: p450-cyp1a2 (AID 410)
# Measurement Conditions: recombinant CYP1A2, luciferin-ME demethylation, luminescence; series mostly up to 57 µM
Inconclusive results are not listed. Activity calls are given as the source filed them. Calls follow the shape of the full dose curve.
Outcomes: YES for active, NO for inactive

>>> class_label("COc1cccc(-c2ccc3ncnc(NCc4cccnc4)c3c2)c1")
"YES"
>>> class_label("CS(=O)(=O)N1CCC2(CCCN(c3ccncc3)C2)CC1")
"NO"
>>> class_label("COc1cccc(Cn2c(=O)c(-c3cc(F)cc(F)c3)nc3cnc(N4CCN(C)CC4)nc32)c1")
"NO"
>>> class_label("O=C(c1ccncc1)N1CCC2(CC1)CN(C(c1ccccc1)c1ccccc1)C2")
"YES"
>>> class_label("CN1CCN(c2cc(-c3ccccc3C(F)(F)F)ncn2)CC1")
"YES"
>>> class_label("N#CCCn1c(=O)c(-c2ccc(Cl)cc2)nc2cnc(OCc3ccccc3)nc21")
"YES"
>>> class_label("CN(C)c1ncnc2ccc(-c3cccnc3)cc12")
"YES"
>>> class_label("CN(Cc1ccco1)c1ncnc2ccc(-c3cccnc3)cc12")
"YES"

###

# Run Description: qHTS for ATAD5 Antagonist screened against the NCATS CANVASS Library (AID 1347370); note: nearly all actives have a fitted effect of over 65% in size
# Measurement Conditions: HEK293T-ATAD5-luc, 5-FUrd stimulated, luminescence, 16 h; series mostly up to 46.1 µM
Results filed as inconclusive are left out. Activity calls are given as the source filed them. The call rests on the fitted dose curve; in most records, active means well fitted inhibition curve with a large enough effect; inconclusive means small, poorly fitted or top-dose-only effect; inactive means no such curve, though single readings can be large or run the other way.
Classes used: yes (active), no (inactive)

>>> class_label("C=C[C@@]1(C)CC[C@@H]([C@H](C)C(C)=O)O1")
"no"
>>> class_label("O=C1CCC(=O)N(O)CCCCCNC(=O)CCC(=O)N(O)CCCCCNC(=O)CCC(=O)N(O)CCCCCN1")
"no"
>>> class_label("CC(=O)c1c(C)cc2c(c1O)C(=O)c1c(O)cc(O)cc1C2=O")
"no"
>>> class_label("CO/C=C/C(=O)c1cc2cnc3c(N)cc(=NC(=O)C(C)C)c([nH]1)c23")
"yes"
>>> class_label("O=C1CC(c2ccc(O)cc2)Oc2cc(O)cc(O)c21 (configuration not stated)")
"no"
>>> class_label("C=C1CC[C@@H](Br)C(C)(C)[C@]12CC=C(C)C(=O)C2")
"no"
>>> class_label("Oc1ccc(C2Oc3cc(O)c4c(c3[C@@H]2c2cc(O)cc(O)c2)[C@H]2C(c3ccc(O)cc3)c3c(O)cc5c(c3[C@H]2C4c2ccc(O)cc2)[C@H](c2cc(O)cc(O)c2)C(c2ccc(O)cc2)O5)cc1 (some centres not stated)")
"no"

###

# Measured On: Cytochrome P450 3A4 (Homo sapiens) (UniProt P08684)
# Sequence (P08684 whole entry, looked up): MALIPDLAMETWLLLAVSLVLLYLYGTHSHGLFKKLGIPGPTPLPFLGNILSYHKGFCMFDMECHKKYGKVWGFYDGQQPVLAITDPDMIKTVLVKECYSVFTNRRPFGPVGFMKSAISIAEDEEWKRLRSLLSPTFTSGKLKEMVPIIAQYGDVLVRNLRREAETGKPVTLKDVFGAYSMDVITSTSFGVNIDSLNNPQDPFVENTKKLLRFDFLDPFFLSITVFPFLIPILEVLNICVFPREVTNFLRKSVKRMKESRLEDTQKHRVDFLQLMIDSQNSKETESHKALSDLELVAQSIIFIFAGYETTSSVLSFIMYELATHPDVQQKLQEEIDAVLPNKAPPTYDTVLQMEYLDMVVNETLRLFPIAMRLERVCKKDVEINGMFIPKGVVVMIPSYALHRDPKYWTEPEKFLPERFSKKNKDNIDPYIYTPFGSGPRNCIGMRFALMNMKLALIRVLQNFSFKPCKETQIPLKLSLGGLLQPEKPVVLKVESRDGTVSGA
# Run Description: qHTS Assay for Activators of Cytochrome P450 3A4 (AID 885); note: nearly all actives have a fitted effect of over 65% in size; note: potency is the fitted concentration of half-maximal effect
# Measurement Conditions: recombinant CYP3A4, Luciferin-PPXE luminescence, 60 min; series mostly up to 57.1 µM
The source made the active and inactive calls. Calls follow the shape of the dose curve; as a rule, active = well fitted activation curve with a large enough effect; inconclusive = small, poorly fitted or top-dose-only effect; inactive = no such curve, though single readings can be large or run the other way.
Observed Property: Potency

>>> assay_result("Cc1noc(C)c1-c1cc(NC2CC2)ncn1")
"inactive"
>>> assay_result("O=C(Nc1ccccc1)N1CC2(CCN(C(=O)c3ccncc3)CC2)C1")
"inactive"
>>> assay_result("COCCN(CCOC)c1nc(C)nc2c1nc(-c1ccccc1)n2CCCN(C)C")
"inactive"
>>> assay_result("O=C(Nc1cccc(F)c1)N1CC[C@@]2(CCCN(C(=O)c3ccco3)C2)C1")
"inactive"
>>> assay_result("COC(=O)N1CCC[C@@]2(CCN(C(=O)Nc3cccc(F)c3)C2)C1")
"inactive"
>>> assay_result("Cc1cccc(CNc2ncncc2-c2cccc(C#N)c2)c1")
"inactive"
>>> assay_result("COCC(=O)N1CCC2(CCCN(C(=O)Nc3ccc(OC)cc3)C2)CC1")
"inactive"
>>> assay_result("Cn1cccc1C(=O)N1CCC[C@@]2(CCN(c3ccncc3)C2)C1")
"inactive"
>>> assay_result("CS(=O)(=O)N1CCC[C@@]2(CCN(C(=O)Nc3cccc(F)c3)C2)C1")
"inactive"
>>> assay_result("CCCCNc1nc(C)nc2c1nc(-c1ccccc1)n2CCCN(CC)CC")
"inactive"
>>> assay_result("COCCn1c(=O)c(-c2ccc(F)cc2)nc2cnc(OCc3ccccc3)nc21")
"inactive"
>>> assay_result("CCN(CC)CCCCn1c(-c2ccccc2)nc2c(NCc3ccccc3)nc(C)nc21")
"inactive"
>>> assay_result("COC(=O)N1CCC2(CCCN(c3ccc(-c4ccccc4)cc3)C2)CC1")
"inactive"
>>> assay_result("Cc1cccc(CNc2ncnc3ccc(-c4cccnc4)cc23)c1")
"inactive"
>>> assay_result("Cc1nc(NC2CCCCC2)c2nc(-c3ccccc3)n(C(C)CN(C)C)c2n1 (stereo not drawn)")
"inactive"
>>> assay_result("CNc1ncnc2ccc(-c3ccccc3CN(C)C)cc12")
"inactive"
>>> assay_result("O=C(Nc1cccc(F)c1)N1CCCC2(CCN(S(=O)(=O)c3ccccc3)CC2)C1")
"inactive"
>>> assay_result("O=C(c1cccc(F)c1)N1CCC[C@@]2(CCN(Cc3nccs3)C2)C1")
"inactive"
>>> assay_result("CCCn1c(C)nc2c(NCCN3CCCC3)nc(C)nc21")
"15.8 µM (active)"
>>> assay_result("COCCNc1nc(C)nc2c1nc(-c1ccccc1)n2CCCN1CCCCC1C (stereo not drawn)")
"inactive"
>>> assay_result("O=c1c(-c2ccc(F)cc2)nc2cnc(N3CCNCC3)nc2n1-c1ccccc1")
"inactive"
>>> assay_result("COCCn1c(=O)c(-c2cccc(C#N)c2)nc2cnc(Oc3ccccc3)nc21")
"inactive"
>>> assay_result("O=C(c1cnccn1)N1CCC[C@@]2(CCN(C(c3ccccc3)c3ccccc3)C2)C1")
"inactive"
>>> assay_result("COCCN(CCOC)c1nc(C)nc2c1nc(-c1ccccc1)n2CCN1CCCC1")
"inactive"
>>> assay_result("C=C1CCC2[C@](C)(CO)C(O)CC[C@]2(C)C1C/C=C1/C(=O)OCC1O (stereo partly drawn)")
"inactive"
>>> assay_result("N#Cc1cccc(-c2nc(N3CCNCC3)c3ccccc3n2)c1")
"inactive"
>>> assay_result("c1cncc(-c2cncnc2-n2ccnc2)c1")
"inactive"
>>> assay_result("O=C1CC(c2ccc(O)cc2)Oc2cc(O)cc(O)c21 (stereo not drawn)")
"inactive"
>>> assay_result("COc1ccc(CNc2ncncc2-c2cccnc2)c(OC)c1")
"inactive"
>>> assay_result("CCNc1ncc2nc(-c3cc(F)cc(F)c3)c(=O)n(C[C@H]3CCCO3)c2n1")
"inactive"
>>> assay_result("O=C(c1ccco1)N1CCC2(CCCN(C(c3ccccc3)c3ccccc3)C2)CC1")
"inactive"
>>> assay_result("COCCNc1ncnc2ccc(-c3cccnc3)cc12")
"inactive"
>>> assay_result("COc1ccc(C(=O)N2CCC3(CC2)CN(Cc2ccc(C#N)cc2)C3)cc1")
"inactive"
